# assayed.system: E. coli RNase P holoenzyme (M1 P RNA + rnpA protein)
# Sequence: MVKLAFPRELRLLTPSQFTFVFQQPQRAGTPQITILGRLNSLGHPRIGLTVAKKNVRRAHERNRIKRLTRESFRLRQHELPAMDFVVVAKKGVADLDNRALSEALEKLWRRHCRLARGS
# assay: relative kcat/Km (krel) vs genomic leader AAAGAU (relative (reference leader = 1)); higher = faster RNase P cleavage
# assay.conditions: fraction of substrate reacted: ~9-10% (9.79% repeat 1, 9.1% repeat 2)
In all, about 4,100 sequences were measured (“relative kcat/Km (krel) vs genomic leader AAAGAU”: median about 1.7, highest 2% from about 6.5 on). The entries come from a sample that favours the highest values as a whole.
I'd appreciate it if you could label each record using relative kcat/Km and these ranges: small value: < 2; mid value: ≥ 2 and < 3; large value: ≥ 3

sequence.chain: TGTTTA
category: mid value
--
sequence.chain: CACGAA
category: large value
--
sequence.chain: AAATTC
category: mid value
--
sequence.chain: TTCTGG
category: small value
--
sequence.chain: TACGCA
category: mid value
--
sequence.chain: TGTTCC
category: mid value
--
sequence.chain: GTCCGA
category: large value
--
sequence.chain: GACGCT
category: mid value
--
sequence.chain: CTCTCT
category: large value
--
sequence.chain: TTCCGA
category: large value
--
sequence.chain: CCTTCC
category: small value
--
sequence.chain: TGTTGC
category: mid value
--
sequence.chain: GACGCC
category: large value
--
sequence.chain: GTATAA
category: large value
--
sequence.chain: ATAACA
category: small value
--
sequence.chain: CAAAAA
category: small value
--
sequence.chain: TTCTGC
category: large value
--
sequence.chain: GGCGTC
category: mid value
--
sequence.chain: TGCTCC
category: mid value
--
sequence.chain: ATCGGA
category: small value
--
sequence.chain: GACGAC
category: large value
--
sequence.chain: TGTTAA
category: large value
--
sequence.chain: TGCTGC
category: small value
--
sequence.chain: GGTTCA
category: small value
--
sequence.chain: ACTAAC
category: small value
--
sequence.chain: GTCCTA
category: large value
--
sequence.chain: TGGACC
category: small value
--
sequence.chain: GACCTC
category: mid value
--
sequence.chain: CTCTGG
category: small value
--
sequence.chain: TGTTAC
category: large value
--
sequence.chain: ATCCGC
category: large value
--
sequence.chain: ACCATA
category: mid value
--
sequence.chain: GACGCA
category: large value
--
sequence.chain: AGTTAA
category: large value
--
sequence.chain: CTACTT
category: mid value
--
sequence.chain: GCCTCC
category: mid value
--
sequence.chain: AGTTTA
category: mid value
--
sequence.chain: GCTCGG
category: small value
--
sequence.chain: TCTTCA
category: mid value
--
sequence.chain: ACGTTC
category: mid value
--
sequence.chain: TTTTCC
category: mid value
--
sequence.chain: GGATTA
category: small value

* * *

Readings of relative kcat/Km for the listed sequences
# assayed.system: E. coli RNase P holoenzyme (M1 P RNA + rnpA protein)
# Sequence: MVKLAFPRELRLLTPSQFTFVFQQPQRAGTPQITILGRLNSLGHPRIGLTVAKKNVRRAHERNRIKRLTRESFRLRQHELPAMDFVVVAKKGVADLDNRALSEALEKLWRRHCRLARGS
# assay: relative kcat/Km (krel) vs genomic leader AAAGAU (relative (reference leader = 1)); higher = faster RNase P cleavage
# assay.conditions: fraction of substrate reacted: ~9-10% (9.79% repeat 1, 9.1% repeat 2)
In all, about 4,100 sequences were measured (“relative kcat/Km (krel) vs genomic leader AAAGAU”: median about 1.7, highest 2% from about 6.5 on). This is one part of a sample in which the highest values are shown more often than they occur.

sequence.chain: GGCTTA
relative kcat/Km: 1.58
--
sequence.chain: CTTTAA
relative kcat/Km: 3.07
--
sequence.chain: CTTTTT
relative kcat/Km: 2.99
--
sequence.chain: GTCAGC
relative kcat/Km: 4.18
--
sequence.chain: CTCCGC
relative kcat/Km: 3.56
--
sequence.chain: CATTAT
relative kcat/Km: 4.62
--
sequence.chain: GATTAG
relative kcat/Km: 2.16
--
sequence.chain: TTAGAT
relative kcat/Km: 1.88
--
sequence.chain: TCAGCC
relative kcat/Km: 2.48
--
sequence.chain: AATTGA
relative kcat/Km: 2.34
--
sequence.chain: AGTCGA
relative kcat/Km: 2.68
--
sequence.chain: TCCTAG
relative kcat/Km: 2.56
--
sequence.chain: GCCTTC
relative kcat/Km: 3
--
sequence.chain: TTTAAA
relative kcat/Km: 3.37
--
sequence.chain: GATTAC
relative kcat/Km: 2.65
--
sequence.chain: ATTTTT
relative kcat/Km: 2.48
--
sequence.chain: TTTTGC
relative kcat/Km: 3.65
--
sequence.chain: GATTAA
relative kcat/Km: 3.21
--
sequence.chain: TTAGGG
relative kcat/Km: 0.357
--
sequence.chain: CTCCGA
relative kcat/Km: 4.78
--
sequence.chain: TTCTTG
relative kcat/Km: 1.95
--
sequence.chain: CACGCT
relative kcat/Km: 1.83
--
sequence.chain: TTCAGG
relative kcat/Km: 1.31
--
sequence.chain: CGCCGC
relative kcat/Km: 2.62
--
sequence.chain: GGAAAC
relative kcat/Km: 1.99
--
sequence.chain: CCAGTC
relative kcat/Km: 2.41

* * *

# assayed.system: E. coli RNase P holoenzyme (M1 P RNA + rnpA protein)
# Sequence: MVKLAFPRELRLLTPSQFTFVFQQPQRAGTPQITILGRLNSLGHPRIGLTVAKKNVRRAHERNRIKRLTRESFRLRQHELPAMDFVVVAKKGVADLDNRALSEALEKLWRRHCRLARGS
# assay: relative kcat/Km (krel) vs genomic leader AAAGAU (relative (reference leader = 1)); higher = faster RNase P cleavage
# assay.conditions: fraction of substrate reacted: ~13-16% (15.68% repeat 1, 13.17% repeat 2)
Over roughly 4,100 sequences, “relative kcat/Km (krel) vs genomic leader AAAGAU” has its median near 1.7; the highest 2% begin near 6.5. This is one part of a sample in which the highest values are shown more often than they occur.
parameter.measured: relative kcat/Km

sequence.chain: GACCAA
result: 3.47

sequence.chain: GGCCAC
result: 1.39

sequence.chain: ACACGG
result: 0.487

sequence.chain: AGTCGG
result: 0.482

sequence.chain: GAAGAT
result: 1.36

sequence.chain: TCGTCA
result: 2.51

sequence.chain: AAAATC
result: 1.14

sequence.chain: GTTGTT
result: 0.86

sequence.chain: ATGTCA
result: 1.97

sequence.chain: ACATAC
result: 3.78

sequence.chain: GTCATG
result: 1.48

sequence.chain: GTCCTT
result: 4.82

sequence.chain: GATCAT
result: 3.62

sequence.chain: CTGCGG
result: 0.228

sequence.chain: TCATAC
result: 5.72

sequence.chain: TTCAGG
result: 1.12

sequence.chain: GATCAC
result: 4.27

sequence.chain: AATACC
result: 1.43

sequence.chain: CAGGGA
result: 0.949

sequence.chain: GATTAG
result: 2.42

sequence.chain: TATAAT
result: 3.72

sequence.chain: GAGAGT
result: 1.48

sequence.chain: CAGCGC
result: 1.4

sequence.chain: ACGCGA
result: 1.29

sequence.chain: TATCAC
result: 4.88

sequence.chain: AACTGA
result: 1.88

sequence.chain: CCTTCC
result: 1.51

sequence.chain: CTCAGC
result: 5.37

sequence.chain: TAAAGA
result: 1.61

sequence.chain: CATTAC
result: 5.16

sequence.chain: AAGCAT
result: 2.87

sequence.chain: TAATAA
result: 4.41

sequence.chain: CAGTGA
result: 2.14

sequence.chain: GTACGC
result: 2.7

sequence.chain: ACAAAC
result: 1.88

sequence.chain: CCCACT
result: 1.27

sequence.chain: TGACAA
result: 3.72

sequence.chain: CATTAG
result: 2.26

sequence.chain: ATCCAA
result: 4.2

sequence.chain: GTCCCC
result: 4.17

sequence.chain: AATTTA
result: 1.63

sequence.chain: GTCCTC
result: 4.33

sequence.chain: GTGCAA
result: 1.25

sequence.chain: CCTAGA
result: 2.71

sequence.chain: AGAAAC
result: 2.7

sequence.chain: TGACTT
result: 2.77

sequence.chain: ATGAAG
result: 0.919

sequence.chain: ATCCTT
result: 4.36

sequence.chain: GTCAGG
result: 1.03

sequence.chain: AGTACT
result: 2.42

sequence.chain: ATCCAT
result: 4.72

sequence.chain: ATCCCC
result: 3.13

sequence.chain: CTAGAT
result: 1.15

sequence.chain: CTCAGA
result: 5.99

sequence.chain: TCATAG
result: 1.66

sequence.chain: GCCAGA
result: 2.26

sequence.chain: TAATCT
result: 3.08

sequence.chain: CGTTTA
result: 3.11

sequence.chain: TAATAT
result: 5.05

sequence.chain: TTGAGC
result: 1.24

sequence.chain: GAGCAA
result: 2.27

sequence.chain: TTCAGA
result: 6.69

sequence.chain: GATAAC
result: 2.81

sequence.chain: GATTAT
result: 4.67

sequence.chain: CTTAGC
result: 3.29

sequence.chain: TGCAGA
result: 2.24

sequence.chain: CAAAGC
result: 1.12

sequence.chain: TTGCGA
result: 1.53

sequence.chain: CTGCCT
result: 1.47

sequence.chain: AACTTC
result: 3.49

sequence.chain: TATCGA
result: 4.7

sequence.chain: TTCAGC
result: 6.48

sequence.chain: GTCCAC
result: 6.06

sequence.chain: GGGTAA
result: 1.31

sequence.chain: CAGATT
result: 2

sequence.chain: TGCTGA
result: 1.69

sequence.chain: TATCTA
result: 2.24

sequence.chain: ACAGTT
result: 1.27

sequence.chain: GGGACA
result: 0.801

sequence.chain: TGTTAG
result: 2.36

sequence.chain: GGGGCC
result: 0.576

sequence.chain: TGATTC
result: 2.97

sequence.chain: GCTTTC
result: 1.88

sequence.chain: CCTTAC
result: 4.83

sequence.chain: CAAATA
result: 1.68

Attribution: the supplement of paper PMC9433436
